Target: SMARCA2 (Homo sapiens)
Construct: endogenous in cells
Sequence (P51531 whole entry, species assumed): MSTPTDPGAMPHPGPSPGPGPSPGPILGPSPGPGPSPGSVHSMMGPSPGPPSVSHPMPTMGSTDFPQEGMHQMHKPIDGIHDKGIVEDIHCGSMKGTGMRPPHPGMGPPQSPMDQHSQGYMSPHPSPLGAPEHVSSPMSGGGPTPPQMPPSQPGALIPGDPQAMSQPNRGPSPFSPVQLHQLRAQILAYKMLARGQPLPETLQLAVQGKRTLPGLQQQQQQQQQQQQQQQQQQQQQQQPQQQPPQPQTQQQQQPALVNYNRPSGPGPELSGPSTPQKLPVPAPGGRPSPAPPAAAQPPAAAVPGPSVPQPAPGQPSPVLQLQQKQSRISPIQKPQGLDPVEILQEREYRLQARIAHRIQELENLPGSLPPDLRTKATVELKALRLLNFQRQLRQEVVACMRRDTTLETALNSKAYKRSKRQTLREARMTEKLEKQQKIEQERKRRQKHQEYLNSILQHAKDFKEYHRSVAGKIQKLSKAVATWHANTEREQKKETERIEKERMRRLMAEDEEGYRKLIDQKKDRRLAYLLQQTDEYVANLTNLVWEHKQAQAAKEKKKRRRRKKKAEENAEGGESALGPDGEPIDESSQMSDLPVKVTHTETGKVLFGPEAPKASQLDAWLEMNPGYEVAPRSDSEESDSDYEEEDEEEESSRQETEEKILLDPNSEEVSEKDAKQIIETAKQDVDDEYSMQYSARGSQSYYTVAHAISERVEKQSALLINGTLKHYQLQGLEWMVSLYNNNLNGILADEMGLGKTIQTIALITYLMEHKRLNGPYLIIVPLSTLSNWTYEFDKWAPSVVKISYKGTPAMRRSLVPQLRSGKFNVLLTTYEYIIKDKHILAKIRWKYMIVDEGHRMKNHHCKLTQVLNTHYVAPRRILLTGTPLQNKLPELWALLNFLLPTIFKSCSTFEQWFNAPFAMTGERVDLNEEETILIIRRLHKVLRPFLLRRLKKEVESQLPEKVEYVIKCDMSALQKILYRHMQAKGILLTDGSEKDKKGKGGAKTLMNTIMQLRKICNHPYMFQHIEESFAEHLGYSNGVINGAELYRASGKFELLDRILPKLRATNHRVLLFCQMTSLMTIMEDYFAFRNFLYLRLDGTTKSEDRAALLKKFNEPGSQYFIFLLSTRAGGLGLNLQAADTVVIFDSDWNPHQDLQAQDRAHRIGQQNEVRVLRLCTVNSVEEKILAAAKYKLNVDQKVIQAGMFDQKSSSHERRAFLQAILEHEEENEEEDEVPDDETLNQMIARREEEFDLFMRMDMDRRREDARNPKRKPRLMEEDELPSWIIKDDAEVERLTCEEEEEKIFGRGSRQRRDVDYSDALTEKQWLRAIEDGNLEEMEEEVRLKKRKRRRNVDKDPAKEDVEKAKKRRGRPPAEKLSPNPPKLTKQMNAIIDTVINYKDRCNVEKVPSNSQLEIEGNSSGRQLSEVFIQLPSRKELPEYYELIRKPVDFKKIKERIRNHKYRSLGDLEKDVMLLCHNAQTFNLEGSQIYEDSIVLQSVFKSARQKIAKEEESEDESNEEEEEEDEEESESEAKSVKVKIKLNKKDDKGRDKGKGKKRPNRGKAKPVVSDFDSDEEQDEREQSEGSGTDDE
Experiment: SMARCA2 Cellular Degradation Assay (Western blot analysis on Jess platform)
Assay type: cell-based
Settings: cellular degradation
Answer each item with its documented DC50.
Express the result in nM but write the number alone.

Qu. Sample O=C1CC[C@H](c2ccc(N3CCC(CCN4CCC(C(=O)NCC5(c6ccccc6)CCN(c6cnnc(-c7ccccc7O)c6)CC5)C5CC54)CC3)cc2)C(=O)N1 (mixture of isomers) [Example 84] — what was its DC50?
Ans. 4.23

Qu. Please give the result for Cc1ccnn1C1(C(=O)N(C)C2CCN(CC3CCN(c4ccc(C5CCC(=O)NC5=O)cc4)CC3)CC2)CCN(c2cnnc(-c3ccccc3O)c2)CC1 (racemic) [Example 96] too.
Ans. 4.3

Qu. Can you check O=C1CC[C@@H](c2ccc(N3CCC(CN4CCCC(CNC(=O)C5(c6ccccc6)CCN(c6cnnc(-c7ccccc7O)c6)CC5)C4)CC3)cc2)C(=O)N1 (some centres unmarked) [Example 10] next?
Ans. 80.1

Qu. One more compound: COC1(C(=O)N2CC3(CN(CCC4CCN(c5ccc(C6CCC(=O)NC6=O)cc5)CC4)C3)C2)CCN(c2cnnc(-c3ccccc3O)c2)CC1 (racemic) [Example 82]
Ans. 11.3

Qu. Now the same for CN(CC1(c2ccccc2)CCN(c2cnnc(-c3ccccc3O)c2)CC1)C1CCN(C(=O)C2CCN(c3ccc(C4CCC(=O)NC4=O)cc3)CC2)CC1 (racemic) [Example 142]
Ans. 24.5
